IC50 for assorted molecules
# Measurement Protocol: Concentration required for the inhibition of influenza neuraminidase activity by 50%
# Design: species or system unidentified influenza virus
Value expressed in nM; do not type the unit.

Here are 3 molecules together with their reported answers.
[
  {
    "Molecule": "CCC(CC)O[C@@H]1C(Cl)=C(C(=O)O)C[C@H](N)[C@H]1NC(C)=O",
    "Val": 3100
  },
  {
    "Molecule": "CCC(CC)O[C@@H]1C=C(C(=O)O)C[C@H](N)[C@H]1NC(C)=O [OSELTAMIVIR CARBOXYLATE]",
    "Val": 1.4
  },
  {
    "Molecule": "CCC(CC)O[C@@H]1C(C)=C(C(=O)O)C[C@H](N)[C@H]1NC(C)=O",
    "Val": 2300
  }
]

Could you now look at the following molecule, please?
Entry under review: CCC(CC)O[C@@H]1C(SC)=C(C(=O)O)C[C@H](N)[C@H]1NC(C)=O . Reported IC50?
3400
